Reported pIC50 values for the following compounds.
# subject_of_test: UniProt O04417
# Sequence (O04417 whole entry): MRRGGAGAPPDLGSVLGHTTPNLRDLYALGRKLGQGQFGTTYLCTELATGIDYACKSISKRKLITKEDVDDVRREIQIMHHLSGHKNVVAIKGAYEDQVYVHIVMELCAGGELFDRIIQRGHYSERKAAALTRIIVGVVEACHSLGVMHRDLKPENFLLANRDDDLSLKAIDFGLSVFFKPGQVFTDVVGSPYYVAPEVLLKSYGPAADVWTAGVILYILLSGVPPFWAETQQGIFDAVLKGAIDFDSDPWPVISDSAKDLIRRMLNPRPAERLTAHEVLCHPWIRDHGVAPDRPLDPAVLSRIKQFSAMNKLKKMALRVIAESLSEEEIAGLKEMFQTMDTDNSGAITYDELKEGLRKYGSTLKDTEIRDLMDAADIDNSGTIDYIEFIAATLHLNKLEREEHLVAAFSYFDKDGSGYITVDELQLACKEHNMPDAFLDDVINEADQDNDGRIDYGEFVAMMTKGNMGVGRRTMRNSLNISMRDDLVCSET
# measurement_description: Inhibition of Calcium-dependent protein kinase 1 (CDPK-1) from maize seedlings
pIC50: −log10 of the molar value.
measured_property: pIC50

{"compound": "CC(=O)NCCCCCC(=O)N[C@@H](CCCN=C(N)N)C(=O)N[C@@H](CCCNC(=N)N)C(=O)N[C@@H](CCCNC(=N)N)C(=O)N[C@@H](CCCNC(=N)N)C(=O)N[C@@H](CCCNC(=N)N)C(=O)N[C@@H](CCCN=C(N)N)C(=O)O (stereo in doubt)", "measured_property": "pIC50", "measured": "< 4.30"}
{"compound": "NC(N)=NCCC[C@@H](N)C(=O)N[C@H](CCCN=C(N)N)C(=O)N[C@H](CCCN=C(N)N)C(=O)N[C@H](CCCN=C(N)N)C(=O)N[C@H](CCCN=C(N)N)C(=O)N[C@H](CCCN=C(N)N)C(=O)O", "measured_property": "pIC50", "measured": "< 4.30"}
